Reference source for all entries: ChEMBL document CHEMBL1125249

Target: Adrenergic receptor alpha-2 (Rattus norvegicus, UniProt P22086+P19328+P22909)
Sequence (P22086 whole entry): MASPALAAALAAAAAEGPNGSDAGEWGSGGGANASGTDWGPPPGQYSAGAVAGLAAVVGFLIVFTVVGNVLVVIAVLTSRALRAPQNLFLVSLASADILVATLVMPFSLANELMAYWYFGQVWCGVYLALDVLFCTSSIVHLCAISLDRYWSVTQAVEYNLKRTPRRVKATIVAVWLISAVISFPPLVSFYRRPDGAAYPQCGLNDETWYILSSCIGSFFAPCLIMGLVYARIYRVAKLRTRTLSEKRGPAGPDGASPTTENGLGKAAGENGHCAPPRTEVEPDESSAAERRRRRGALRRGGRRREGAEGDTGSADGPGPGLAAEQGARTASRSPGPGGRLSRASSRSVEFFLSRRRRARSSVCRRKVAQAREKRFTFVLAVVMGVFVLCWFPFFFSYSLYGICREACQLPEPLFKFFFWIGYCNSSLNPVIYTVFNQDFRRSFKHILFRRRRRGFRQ
Sequence (P19328 whole entry): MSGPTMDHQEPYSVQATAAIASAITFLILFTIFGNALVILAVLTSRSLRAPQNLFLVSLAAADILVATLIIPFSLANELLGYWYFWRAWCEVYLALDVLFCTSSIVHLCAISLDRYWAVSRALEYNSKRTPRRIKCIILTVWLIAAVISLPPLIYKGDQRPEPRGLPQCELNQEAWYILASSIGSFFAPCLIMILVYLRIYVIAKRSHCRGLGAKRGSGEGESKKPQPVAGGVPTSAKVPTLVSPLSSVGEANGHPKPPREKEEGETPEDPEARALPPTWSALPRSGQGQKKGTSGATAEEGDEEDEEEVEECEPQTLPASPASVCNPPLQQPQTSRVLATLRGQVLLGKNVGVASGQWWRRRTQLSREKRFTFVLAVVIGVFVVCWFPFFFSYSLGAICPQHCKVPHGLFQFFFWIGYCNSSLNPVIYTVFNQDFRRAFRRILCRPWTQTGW
Sequence (P22909 whole entry): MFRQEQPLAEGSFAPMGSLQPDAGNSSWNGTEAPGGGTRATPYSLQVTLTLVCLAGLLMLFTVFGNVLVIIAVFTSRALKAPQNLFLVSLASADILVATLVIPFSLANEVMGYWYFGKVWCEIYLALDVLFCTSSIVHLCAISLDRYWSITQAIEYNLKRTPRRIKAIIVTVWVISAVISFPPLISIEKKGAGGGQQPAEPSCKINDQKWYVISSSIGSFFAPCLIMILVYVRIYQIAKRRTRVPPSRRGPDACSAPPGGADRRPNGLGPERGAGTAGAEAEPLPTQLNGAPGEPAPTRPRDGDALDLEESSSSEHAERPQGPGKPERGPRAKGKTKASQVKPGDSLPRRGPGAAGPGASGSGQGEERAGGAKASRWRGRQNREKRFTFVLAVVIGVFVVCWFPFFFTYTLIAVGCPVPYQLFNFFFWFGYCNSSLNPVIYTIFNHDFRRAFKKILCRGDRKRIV
Experiment: Binding affinity to alpha-2 adrenergic receptor determined by measurement of [3H]yohimbine displacement from rat cortical membrane

- Molecule: "COc1ccc2c(c1)CCN1C[C@H]3CCCN(S(=O)(=O)CC(C)C)[C@H]3C[C@@H]21"
  Target entity: "Adrenergic receptor alpha-2 (Rattus norvegicus, UniProt P22086+P19328+P22909)"
  Log Ki: -8.77
- Molecule: "CS(=O)(=O)N1CCC[C@H]2[C@H]3c4cc5c(cc4CCN3CC[C@@H]21)OCO5"
  Target entity: "Adrenergic receptor alpha-2 (Rattus norvegicus, UniProt P22086+P19328+P22909)"
  Log Ki: -6.4
- Molecule: "O=S(=O)(c1ccc(F)cc1)N1CCC[C@@H]2CN3CCc4ccccc4[C@@H]3C[C@@H]21"
  Target entity: "Adrenergic receptor alpha-2 (Rattus norvegicus, UniProt P22086+P19328+P22909)"
  Log Ki: -8.69
- Molecule: "CS(=O)(=O)N1CCC[C@@H]2CN3CCc4cc5c(cc4[C@@H]3C[C@@H]21)OCO5"
  Target entity: "Adrenergic receptor alpha-2 (Rattus norvegicus, UniProt P22086+P19328+P22909)"
  Log Ki: -9.18
- Molecule: "CS(=O)(=O)N1CCC[C@H]2CN3CCc4ccccc4[C@@H]3C[C@@H]21"
  Target entity: "Adrenergic receptor alpha-2 (Rattus norvegicus, UniProt P22086+P19328+P22909)"
  Log Ki: -7.25
- Molecule: "C=CS(=O)(=O)N1CCC[C@@H]2CN3CCc4cc(OC)ccc4[C@@H]3C[C@@H]21"
  Target entity: "Adrenergic receptor alpha-2 (Rattus norvegicus, UniProt P22086+P19328+P22909)"
  Log Ki: -8.82
- Molecule: "COc1cc2c(cc1Br)[C@@H]1C[C@@H]3[C@H](CCCN3S(C)(=O)=O)CN1CC2"
  Target entity: "Adrenergic receptor alpha-2 (Rattus norvegicus, UniProt P22086+P19328+P22909)"
  Log Ki: -8.3
- Molecule: "COc1ccc(S(=O)(=O)N2CCC[C@@H]3CN4CCc5ccccc5[C@@H]4C[C@@H]32)cc1"
  Target entity: "Adrenergic receptor alpha-2 (Rattus norvegicus, UniProt P22086+P19328+P22909)"
  Log Ki: -9.34
- Molecule: "CN1C[C@H]2CCCN(S(C)(=O)=O)[C@H]2C[C@H]1c1ccc2c(c1)OCO2"
  Target entity: "Adrenergic receptor alpha-2 (Rattus norvegicus, UniProt P22086+P19328+P22909)"
  Log Ki: -5.38
- Molecule: "CCS(=O)(=O)N1CCC[C@@H]2CN3CCc4ccccc4[C@@H]3C[C@@H]21"
  Target entity: "Adrenergic receptor alpha-2 (Rattus norvegicus, UniProt P22086+P19328+P22909)"
  Log Ki: -8.82
- Molecule: "CS(=O)(=O)N1CCC[C@H]2CN3CCc4ccccc4[C@@H]3C[C@H]21"
  Target entity: "Adrenergic receptor alpha-2 (Rattus norvegicus, UniProt P22086+P19328+P22909)"
  Log Ki: -5.96
- Molecule: "CS(=O)(=O)N1CC[C@H]2C[C@H]3c4ccccc4CCN3C[C@H]2C1"
  Target entity: "Adrenergic receptor alpha-2 (Rattus norvegicus, UniProt P22086+P19328+P22909)"
  Log Ki: -6.4
- Molecule: "COc1ccc2c(c1)CCN1C[C@H]3CCCN(S(=O)(=O)NC(C)(C)C)[C@H]3C[C@@H]21"
  Target entity: "Adrenergic receptor alpha-2 (Rattus norvegicus, UniProt P22086+P19328+P22909)"
  Log Ki: -7.78
- Molecule: "CC(C)CS(=O)(=O)N(C)[C@@H]1CCN2CCc3ccccc3[C@@H]2C1"
  Target entity: "Adrenergic receptor alpha-2 (Rattus norvegicus, UniProt P22086+P19328+P22909)"
  Log Ki: -8.04
- Molecule: "O=S(=O)(c1ccccc1)N1CCC[C@@H]2CN3CCc4ccccc4[C@@H]3C[C@@H]21"
  Target entity: "Adrenergic receptor alpha-2 (Rattus norvegicus, UniProt P22086+P19328+P22909)"
  Log Ki: -8.81
- Molecule: "COc1ccc2c(c1)CCN1C[C@@H]3CCCN(S(C)(=O)=O)[C@@H]3C[C@@H]21"
  Target entity: "Adrenergic receptor alpha-2 (Rattus norvegicus, UniProt P22086+P19328+P22909)"
  Log Ki: -6.88
- Molecule: "CS(=O)(=O)N1CCC[C@@H]2CN3CCc4ccccc4[C@@H]3C[C@@H]21"
  Target entity: "Adrenergic receptor alpha-2 (Rattus norvegicus, UniProt P22086+P19328+P22909)"
  Log Ki: -8.77
- Molecule: "CS(=O)(=O)N1CCC[C@@H]2CN3CCc4cc(O)ccc4[C@@H]3C[C@@H]21"
  Target entity: "Adrenergic receptor alpha-2 (Rattus norvegicus, UniProt P22086+P19328+P22909)"
  Log Ki: -8.2
- Molecule: "CS(=O)(=O)N1CCC[C@@H]2CN3CCc4c([nH]c5ccccc45)[C@@H]3C[C@@H]21"
  Target entity: "Adrenergic receptor alpha-2 (Rattus norvegicus, UniProt P22086+P19328+P22909)"
  Log Ki: -7.78
- Molecule: "O=S(=O)(c1ccc(Cl)cc1)N1CCC[C@@H]2CN3CCc4ccccc4[C@@H]3C[C@@H]21"
  Target entity: "Adrenergic receptor alpha-2 (Rattus norvegicus, UniProt P22086+P19328+P22909)"
  Log Ki: -8.3
- Molecule: "CN(C)S(=O)(=O)N1CCC[C@@H]2CN3CCc4ccccc4[C@@H]3C[C@@H]21"
  Target entity: "Adrenergic receptor alpha-2 (Rattus norvegicus, UniProt P22086+P19328+P22909)"
  Log Ki: -8.74
- Molecule: "CS(=O)(=O)N1CCC[C@@H]2CN(CCc3ccccc3)CC[C@@H]21"
  Target entity: "Adrenergic receptor alpha-2 (Rattus norvegicus, UniProt P22086+P19328+P22909)"
  Log Ki: -6.12
- Molecule: "COc1cc2c(cc1OC)[C@@H]1C[C@H]3[C@H](CCCN3S(C)(=O)=O)CN1CC2"
  Target entity: "Adrenergic receptor alpha-2 (Rattus norvegicus, UniProt P22086+P19328+P22909)"
  Log Ki: -8.01
- Molecule: "COc1ccc2c(c1)CCN1C[C@H]3CCCN(S(=O)(=O)Cc4ccccc4)[C@@H]3C[C@@H]21"
  Target entity: "Adrenergic receptor alpha-2 (Rattus norvegicus, UniProt P22086+P19328+P22909)"
  Log Ki: -8.82
- Molecule: "COc1ccc2c(c1)CCN1C[C@H]3CCCN(S(=O)(=O)CCl)[C@@H]3C[C@@H]21"
  Target entity: "Adrenergic receptor alpha-2 (Rattus norvegicus, UniProt P22086+P19328+P22909)"
  Log Ki: -8.95
- Molecule: "COc1ccc2c(c1)CCN1C[C@H]3CCCN(S(=O)(=O)c4cccs4)[C@@H]3C[C@@H]21"
  Target entity: "Adrenergic receptor alpha-2 (Rattus norvegicus, UniProt P22086+P19328+P22909)"
  Log Ki: -8.83
- Molecule: "CCCCS(=O)(=O)N1CCC[C@@H]2CN3CCc4ccccc4[C@@H]3C[C@@H]21"
  Target entity: "Adrenergic receptor alpha-2 (Rattus norvegicus, UniProt P22086+P19328+P22909)"
  Log Ki: -8.9
- Molecule: "CS(=O)(=O)N1CC[C@@H]2CN3CCc4ccccc4[C@@H]3C[C@@H]2C1"
  Target entity: "Adrenergic receptor alpha-2 (Rattus norvegicus, UniProt P22086+P19328+P22909)"
  Log Ki: -7.54
